Taken from ChEMBL document CHEMBL1201862.

- Tested on: T47D
- protocolDetails: NCI tumour cell line growth inhibition, 48 h
Active and inactive are the calls of the source. Cut-off read from the data, not from the text of the source: active = GI50 up to about 1.1 µM and inactive = higher.
valueKind: GI50

COc1ccc(N2C(N)=C(C#N)C(C#N)(C#N)C2c2cccc([N+](=O)[O-])c2)cc1 (stereo not given) :: 12.6 µM (inactive)
Cc1n[nH]c(=O)n1-c1cccnc1 :: > 100 µM (inactive)
N#CCCC(CC#N)N1CCN(CCO)CC1 (stereo not given) :: > 100 µM (inactive)
OC1(c2ccc(Cl)cc2)c2c(c3ccccc3c3ccccc23)C2=NCCN21 (stereo not given) :: 15.4 µM (inactive)
COc1ccc(Nc2nc3c([nH]2)c(=O)n(C)c(=O)n3C)cc1 :: > 10 µM (inactive)

Which measured GI50 value corresponds to COc1ccc2c(c1OC)C(=O)N1C2=Cc2c(cc3c(c2OC)OCO3)CC1N(C)C (stereo not given) ?
24.4 µM (inactive)

Do the same for "Cc1ccccc1/N=N/c1ccc(N/N=C2/CCCNC2=O)c(C)c1" please
33 µM (inactive)

Do the same for "Cc1cc(NS(=O)(=O)c2ccc(/N=[N+](\[O-])c3ccc(S(=O)(=O)Nc4cc(C)on4)cc3)cc2)no1" please
> 100 µM (inactive)

Do the same for C=C[C@]1(C)CC[C@]2(C)C(CC[C@@]3(C)C2C[C@H](O)[C@H](O)[C@@]3(C)O)C1 (stereo not given in full) please
> 100 µM (inactive)

Do the same for "O=c1[nH]nc(-c2ccccc2)c2[nH]c(-c3ccccc3)cc12" please
25.5 µM (inactive)

====

- Tested on: EKVX
- protocolDetails: NCI tumour cell line growth inhibition, 48 h
The source made the active and inactive calls. No stated cut-off is given here; in the data, active = GI50 up to about 1.1 µM and inactive = higher.
valueKind: GI50

CC(C)=CC(=O)Cc1nc2ccccc2[nH]c1=O :: 47.3 µM (inactive)
CC(=O)c1ccc2c3c1[C@H]1O[C@H]1c1cccc(c1-3)[C@@H]1O[C@H]21 :: 1.9 µM (inactive)
COC(=O)C(NC(=O)C(CC(=O)OC(C)(C)C)NC(=O)OC(C)(C)C)C(O)c1ccccc1 (stereo unspecified) :: > 100 µM (inactive)

Can you look up GI50 on EKVX for "CCO/C=C1\N=C(c2ccc(Cl)c(Cl)c2)OC1=O" ?
41 µM (inactive)

Do the same for "O=[N+]([O-])c1ccc(-c2nc3cc(Cl)ccc3[nH]2)cc1" please
69.5 µM (inactive)

Do the same for "COC(=O)[C@H]1C=C[C@@H](C)n2c(=O)c3cc4ccccc4cc3c(=O)n21" please
> 100 µM (inactive)

Do the same for "CCC(=S)N(C)O" please
16.5 µM (inactive)

Do the same for "N[C@H](Cc1ccc2oc3cc(=O)c4ccccc4c-3nc2c1)C(=O)O" please
> 100 µM (inactive)

Do the same for "NCCC1([N+](=O)[O-])CCNCC1" please
> 100 µM (inactive)

Do the same for CC1(C(O)c2ccccc2)CN(C(C)(C)C)C(=O)/C1=C\Sc1ccccc1 (stereo unspecified) please
83 µM (inactive)

Do the same for "O=C1c2ccccc2CN1c1ccc(O)cc1" please
> 100 µM (inactive)

Do the same for "CSc1ccc2c(cc1=O)[C@@H](NC(C)=O)CCc1cc(O)c(O)c(O)c1-2" please
31.9 µM (inactive)

Do the same for COC(=O)C1=C(OC(=O)/C(=C/c2ccccc2)c2ccc(OC)cc2)C(C(=O)OC)[C@@]2(O)[C@@H](C(=O)OC)[C@H](C)C[C@@H]1[C@@H]2C(=O)OC (stereo partly specified) please
> 100 µM (inactive)

Do the same for "NC(=O)c1cccc([C@@H]2O[C@H](CO)[C@@H](O)[C@H]2O)c1" please
68.7 µM (inactive)

Do the same for "Clc1ccc(/N=C2\c3ccccc3CN2c2ccc(Cl)cc2)cc1" please
> 100 µM (inactive)

====

- Tested on: DLD-1
- protocolDetails: NCI tumour cell line growth inhibition, 48 h
Active and inactive are the calls of the source. No stated cut-off is given here; in the data, active = GI50 up to about 1.1 µM and inactive = higher.
Recorded GI50 by entry

CCC1(OC(=O)CN2CCN(CCO)CC2)C(=O)OCc2c1cc1n(c2=O)Cc2cc3ccccc3nc2-1 (stereo unspecified) :: 6.62 µM (inactive)
Nc1nc(N)c2nc(-c3ccco3)cnc2n1 :: > 100 µM (inactive)
COc1cc2c(cc1OC)C1Cc3ccc(OC)c(OC)c3C[N+]1([O-])CC2 (stereo unspecified) :: > 100 µM (inactive)
O=C1/C(=C/c2ccccc2)CN(C(=O)CCN2CCCC2)C/C1=C\c1ccccc1 :: 1.46 µM (inactive)
COc1cccc(/C=N/[N-]C(=S)Nc2ccccc2)c1[O-].O.[Zn+2] :: 29 µM (inactive)

Which measured GI50 value corresponds to C#CCC1(C(=O)OCC)C(=O)c2ccccc2N(C)C1=O (stereo unspecified) ?
> 100 µM (inactive)

Do the same for CN(CC1NCCCC1O)C12CC3CC(CC(C3)C1)C2 (stereo unspecified) please
> 100 µM (inactive)

Do the same for "COc1ccc(Cc2c3cc(OC)c(OC)cc3cc[n+]2C)cc1" please
> 18 µM (inactive)

Do the same for "COC(=O)[C@H]1C=C[C@@H](C)n2c(=O)c3cc4ccccc4cc3c(=O)n21" please
> 100 µM (inactive)

Do the same for CC(C)N(C(=O)C12C3C4C5(C(=O)O)C(C1C35I)C42C(=O)O)C(C)C (stereo unspecified) please
> 100 µM (inactive)

Do the same for Nc1ncnc2c1ncn2C1CCC(CO)O1 (stereo unspecified) please
> 100 µM (inactive)

====

Recorded GI50 by entry
- Test system: NCI-H226
- protocolDetails: NCI tumour cell line growth inhibition, 48 h
Active and inactive are the calls of the source. Cut-off read from the data, not from the text of the source: active = GI50 up to about 1.1 µM and inactive = higher.

Solved cases (2 shown):
O=c1c2cc([N+](=O)[O-])ccc2n2n1CCCCC2 :: > 100 µM (inactive)
CC1(C)C2CCC(CN)(C2)C1N (centres undefined) :: > 100 µM (inactive)

Can you look up GI50 on NCI-H226 for CCC(NC(C)c1ccccc1)C(O)c1ccc(OCc2ccccc2)c(OCc2ccccc2)c1 (centres undefined) ?
18.6 µM (inactive)

Do the same for "Cc1c(/C=N/N(C)C)oc2c1cc(O)c1ncccc12" please
13.2 µM (inactive)

====

- Tested on: NCI-H23
- protocolDetails: NCI tumour cell line growth inhibition, 48 h
Active and inactive are the calls of the source. No stated cut-off is given here; in the data, active = GI50 up to about 1.1 µM and inactive = higher.
Recorded GI50 by entry

Solved cases (10 shown):
COc1ccc(SCc2cc(OCc3ccccc3)c(OCc3ccccc3)c(OCc3ccccc3)c2)cc1 :: 1.75 µM (inactive)
COC(=O)c1c(N)n[nH]c1N :: > 100 µM (inactive)
COc1cc2c(cc1OC)C1Cc3ccc(OC)c(OC)c3C[N+]1([O-])CC2 (stereo not given) :: > 100 µM (inactive)
COc1cccc2c1C(=O)c1c(O)c3c(c(O)c1C2=O)CC(O)(C(O)CO)CC3OC1CC(N2CCOCC2)C(O)C(C)O1 (stereo not given) :: 0.00464 µM (active)
CCc1ccccc1NC(=O)CC1NC(=O)CS1 (stereo not given) :: > 100 µM (inactive)
Cc1ccc(-c2c3nc(c(-c4ccc(C)cc4)c4ccc([nH]4)c(-c4ccc(OCC5COC(C)(C)O5)cc4)c4nc(c(-c5ccc(C)cc5)c5ccc2[nH]5)C=C4)C=C3)cc1 (stereo not given) :: > 31.6 µM (inactive)
COC12c3ccccc3-c3ccccc3C1[C@@H](C(=O)O)[C@H]2C(=O)O (stereo not given in full) :: > 10 µM (inactive)
COc1ccc2c(c1)/C(=C\c1cccc(/C=C3/C(=O)Nc4ccc(OC)cc43)n1)C(=O)N2 :: 0.925 µM (active)
Cc1ccccc1/N=N/c1c(O)c(S(=O)(=O)O)cc2cc(S(=O)(=O)O)ccc12 :: > 100 µM (inactive)
Cc1cc(NS(=O)(=O)c2ccc(/N=[N+](\[O-])c3ccc(S(=O)(=O)Nc4cc(C)on4)cc3)cc2)no1 :: > 100 µM (inactive)

Can you look up GI50 on NCI-H23 for "CO/C(=N\N=C\c1cc(OC)ccc1OC)c1ccncc1" ?
> 10 µM (inactive)

Do the same for "Oc1ccc2ccccc2c1/N=N/c1ccsc1" please
> 100 µM (inactive)

Do the same for "BrC(c1cccc2ccccc12)c1cccc2ccccc12" please
19.9 µM (inactive)

Do the same for "CN(C)NC(=O)NC12CC3CC(CC(C3)C1)C2" please
> 100 µM (inactive)

Do the same for COc1ccc(N2C(N)=C(C#N)C(C#N)(C#N)C2c2cccc([N+](=O)[O-])c2)cc1 (stereo not given) please
15.5 µM (inactive)

Do the same for "Nc1cnc2c(c1)c(=O)nc1n2CCS1" please
> 100 µM (inactive)

Do the same for "COc1ccc(/C=N/n2c(Cc3ccc(Cl)cc3)n[nH]c2=O)c(OC)c1" please
29.4 µM (inactive)

Do the same for COc1ccc2c(c1OC)C(=O)N1C2=Cc2c(cc3c(c2OC)OCO3)CC1N(C)C (stereo not given) please
34 µM (inactive)

Do the same for C=C(C)C(CC=C(C)C)CC12CC(CC=C(C)C)C(C)(C)C(CC=C(C)C)(C(=O)C(Cc3ccc(O)c(O)c3)=C1O)C2=O (stereo not given) please
> 100 µM (inactive)

Do the same for CC[C@@]1(O)C(=O)OCc2c1cc1n(c2=O)Cc2c-1nc1ccccc1c2CC[Si](C)(C)C [COSITECAN] please
< 0.01 µM (active)
